target_system: Glycoprotein VI extracellular domain (Gln21-Lys267) (Homo sapiens) (UniProt Q9HCN6)
Sequence: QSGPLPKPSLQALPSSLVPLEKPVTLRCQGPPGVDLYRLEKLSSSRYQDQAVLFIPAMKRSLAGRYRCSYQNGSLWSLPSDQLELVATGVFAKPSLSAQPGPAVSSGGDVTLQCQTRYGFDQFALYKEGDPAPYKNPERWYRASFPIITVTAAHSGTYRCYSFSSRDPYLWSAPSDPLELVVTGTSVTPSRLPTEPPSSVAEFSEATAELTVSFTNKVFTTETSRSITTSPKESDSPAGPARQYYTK
assay_remarks: filter
experimental_context: RB520 pattern; hexaethylene glycol spacer between G11 and C12; 3' idT; buffer F, 37 C
measurement_kind: Kd (nM)
Lab book: enter the figure in nM, no units written.

// Kd lookup, sequence = GGAGGACGGCGCGCCUGGCAUAAGCCUCC [RB521] , result: 6

Data provenance: patent US20100311820
